- SYSTEM_TESTED: T1, PACAP-R3 (human, UniProt P41587 24-438)
- T1 sequence (looked up): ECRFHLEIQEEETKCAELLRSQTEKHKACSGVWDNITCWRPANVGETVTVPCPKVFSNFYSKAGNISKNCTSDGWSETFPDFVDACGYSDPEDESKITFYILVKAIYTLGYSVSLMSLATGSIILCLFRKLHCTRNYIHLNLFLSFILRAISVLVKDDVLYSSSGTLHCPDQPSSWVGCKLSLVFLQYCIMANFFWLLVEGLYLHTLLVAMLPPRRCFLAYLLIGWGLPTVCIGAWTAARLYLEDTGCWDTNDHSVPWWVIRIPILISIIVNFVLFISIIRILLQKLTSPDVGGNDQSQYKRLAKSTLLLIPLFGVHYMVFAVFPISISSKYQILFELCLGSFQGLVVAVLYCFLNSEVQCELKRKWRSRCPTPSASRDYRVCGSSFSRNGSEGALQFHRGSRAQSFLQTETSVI
- PROTOCOL_DETAILS: cell-based or functional assay
No end group written: not given here.
Please note: R3 EC50 exactly at 0.8 nM is Not met. Only values below 0.8 nM get Met.

HSDAVFTDNYTRLRKQMAAKKYLNSIKNSR [R3P148] : Met
HSDAVFTDNYTRLRKQMAAKKYLNSIVNKR [R3P131] : Met
HSDAVFTDQYTRLRKQLAAKKYLNTIKNKRY [R3P72] : Met
HSDAVFTDNYTRLRKQMAAKKYLNDIKKGGT [R3P20] : Not met
HSDAVFTDNYTRLRKQMAAKKYLNSIKNKI [R3P160] : Met
HSDAVFTDNYTRLRKQVAAKKYLQSIKK [R3P60] : Not met
HSDAVFTDNYTRLRKQVAAKKYLQSILNKR [R3P93] : Met
HSDAVFTDNYTRLRKQLAAKKYLNTIKNKRY [R3P67] : Met

Data request: Here's an entry: HSDAVFTDNYTRLRKQVAAKKYLNSIKKKR [R3P78] . Is its R3 EC50 below 0.8 nM?
Data returned: Not met

Data request: Here's an entry: HSDAVFTDNYTRLRKQMAAKKYLNSIKNKH [R3P159] . Is its R3 EC50 below 0.8 nM?
Data returned: Met

Data request: Here's an entry: HSDAVFTDNYTRLRKQMAAKKYLNSIGNKR [R3P121] . Is its R3 EC50 below 0.8 nM?
Data returned: Not met

Data request: Here's an entry: HSDAVFTDNYTRLRKQVAAKKYLNSIKNKRY [R3P68] . Is its R3 EC50 below 0.8 nM?
Data returned: Met

Data request: Here's an entry: HSDAVFTENYTRLRKQMAVKKYLNSLKK-NH2 [R3P7] . Is its R3 EC50 below 0.8 nM?
Data returned: Not met
